Target: Solute carrier family 2, facilitated glucose transporter member 1 (Homo sapiens)
Assay: ST_JUDE_LEISH: Cytotoxicity at 2uM final concentration against transgenic Leishmania Mexicana promastigotes LmGLUT1 that are glucose transport deficient and complemented with the human glucose transporter GLUT1. Activity is measured by DNA content using SYBR green in vitro
Type: functional
attribute-measured: inhibition (%)
Report only the number, with the unit % understood.

Some solved entries appear below for comparison.
compound	inhibition [%]
CCCCCN1CCCC(NS(=O)(=O)c2cccc(C(=O)Nc3cccc(C(F)(F)F)c3)c2)C1 (stereo not given)	-0.69
Oc1ccc(CCNc2nc(NCc3ccccc3-c3ccc(C(F)(F)F)cc3)nc(N3CCCNCC3)n2)cc1	4.27
COc1ccc2ncc(F)c(CCN3CCC(CNC(=O)C(=O)c4c[nH]c5ccccc45)CC3)c2n1	6.8
CC(C)CCCC(C)(C)NC[C@@H](O)[C@H](Cc1ccccc1)NC(=O)c1cccc(OCC2CC2)c1	1.19
Fc1cc(CN2CCCC2)ccc1OCCCN1CCN(c2cccc(Cl)c2Cl)CC1	4.56
CCOC(=O)CNC(=O)N(CCN(Cc1ccccc1)C(=O)NCC(=O)OCC)Cc1ccccc1	0.94
OCCNc1nc(Nc2ccccc2)nc2ccccc12	8.68
Cc1cc(C)cc(CC(=O)N2CCC(n3c(C)nc4ccc(C)cc43)CC2)c1	2.35
COc1ccc(Nc2ncc3c(-c4cccc(NC(=O)Cc5cccnc5)c4)c[nH]c3n2)cc1OC	-2.6
COc1cccc(C(=O)Nc2ccc(Nc3nc(C)cc(N(C)C)n3)cc2)c1	12.8

Record CC(C)N1CCN(C(=O)c2ccc(CN(C)CCCN3CCN(c4cccc(Cl)c4Cl)CC3)s2)CC1 , field inhibition: 0.58

Record Cc1ccc(-c2noc(=O)n2CC(=O)Nc2ccccc2-c2ccccc2)cc1 , field inhibition: 0.59

Record CN1CCN(c2cc(NC(=O)c3ccc(-c4ccc(C#N)cc4)cc3)ccc2Cl)CC1 , field inhibition: 0.4

Record O=C(Nc1ccccc1)c1cccc(Nc2nccc(Nc3ccc(Oc4ccccc4)cc3)n2)c1 , field inhibition: 0.65
